Target: T1, mouse TREM1 on CHO cells (mouse, UniProt Q9JKE2 21-230)
T1 construct: also called CHO-mT1
T1 sequence: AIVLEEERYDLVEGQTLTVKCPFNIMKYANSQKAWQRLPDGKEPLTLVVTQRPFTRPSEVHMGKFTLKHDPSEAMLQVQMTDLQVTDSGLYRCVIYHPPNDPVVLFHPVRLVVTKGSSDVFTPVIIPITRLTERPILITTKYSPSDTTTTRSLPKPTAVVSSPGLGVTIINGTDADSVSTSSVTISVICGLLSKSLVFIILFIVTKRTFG
Assay: FACS, CHO mouse TREM1
// reported FOB Fold Over Background per item
State just the number; it will be interpreted in fold.

Some entries whose results are on file:
T1-13 (antibody, IgG1, V domains shown, huIgG1; also called TI-13; ADI-19080) VH: EVQLVESGGGLVKPGGSLRLSCAASGFTFSSYSMNWVRQAPGKGLEWVSSISSSSNYIYYADSVKGRFTISRDNAKNSLYLQMNSLRAEDTAVYYCARGRYRRTGSLDVWGQGTMVTVSS VL: EIVLTQSPGTLSLSPGERATLSCRASQSVSSSFLAWYQQKPGQAPRLLIYGASSRATGIPDRFSGSGSGTDFTLTISRLEPEDFAVYYCQQLDSHPPTFGGGTKVEIK: 0.5
T1-24 (antibody, IgG1, V domains shown, huIgG1; also called TI-24; ADI-19150) VH: EVQLVESGGGLVQPGRSLRLSCAASGFTFDDYAMHWVRQAPGKGLEWVSGITWNSGSIGYADSVKGRFTISRDNAKNSLYLQMNSLRAEDTALYYCAKGPRLLSALDVWGQGTMVTVSS VL: DIQMTQSPSTLSASVGDRVTITCRASQSISSWLAWYQQKPGKAPKLLIYKASSLESGVPSRFSGSGSGTEFTLTISSLQPDDFATYYCQQDSIYPITFGGGTKVEIK: 1.3
T1-32 (antibody, IgG1, V domains shown, huIgG1; also called TI-32) VH: QLQLQESGPGLVKPSETLSLTCTVSGGSISSSSYYWGWIRQPPGKGLEWIGSIYYSGSTYYNPSLKSRVTISVDTSKNQFSLKLSSVTAADTAVYYCARDAPAVVGESPAFDIWGQGTMVTVSS VL: DIQMTQSPSSLSASVGDRVTITCRASQSISRYLNWYQQKPGKAPKLLIYAASSLQSGVPSRFSGSGSGTDFTLTISSLQPEDFATYYCQQSLDLPFTFGGGTKVEIK: 380
T1-25 (antibody, IgG1, V domains shown, huIgG1; also called TI-25; ADI-19092) VH: EVQLVESGGGLVQPGRSLRLSCAASGFTFDDYAMHWVRQAPGKGLEWVSGISWNSGSIGYADSVKGRFTISRDNAKNSLYLQMNSLRAEDTALYYCAKGGSRYSHFDYWGQGTLVTVSS VL: EIVLTQSPATLSLSPGERATLSCRASQSVSSYLAWYQQKPGQAPRLLIYDASNRATGIPARFSGSGSGTDFTLTISSLEPEDFAVYYCQQRSVLPLTFGGGTKVEIK: 0.9

Read the next record carefully.
Req: Need FOB Fold Over Background, item T1-80 (antibody, IgG1, V domains shown, huIgG1; also called TI-80; ADI-19159) VH: QVQLVESGGGVVQPGRSLRLSCAASGFTFSSYGMHWVRQAPGKGLEWVALIWYDGSNKYYADSVKGRFTISRDNSKNTLYLQMNSLRAEDTAVYYCARELIVGATGGLTYYYGMDVWGQGTTVTVSS VL: EIVMTQSPATLSVSPGERATLSCRASQSVGSNLAWYQQKPGQAPRLLIYGASTRATGIPARFSGSGSGTEFTLTISSLQSEDFAVYYCQQDHDRPLTFGGGTKVEIK
Resp: 1.2

Sourced from patent US11472877
